Here, each record is paired with measured MIC P. aeruginosa IMP1 Livermore 3140 data.
tested on: Pseudomonas aeruginosa IMP 1 Livermore 3140; assay type: cell-based; details: IMP 1 Livermore 3140
Non-standard residues stand in square brackets, D forms with d. Residues, ends and D or L forms follow the SMILES beside them. hSer = N[C@@H](CCO)C(=O)O; Dab = NCC[C@H](N)C(=O)O
RECORDED_ENDPOINT: MIC P. aeruginosa IMP1 Livermore 3140 (µg/mL)

>>> experimental_value("CC[C@H](C)[C@@H]1NC(=O)[C@H](Cc2c[nH]c3ccccc23)NC(=O)[C@H]([C@@H](C)O)NC(=O)[C@@H]2CCCN2C(=O)[C@H]2CCCN2C(=O)[C@H](CCN)NC(=O)[C@H](C)NC(=O)[C@H](CCN)NC(=O)[C@H](CCN)NC(=O)[C@H](Cc2c[nH]c3ccccc23)NC(=O)[C@H](CCN)NC(=O)[C@H](CCN)NC(=O)[C@H](CCCCN)NC(=O)[C@H](CCC(N)=O)NC1=O [Example 29] (cyclo(TWIQK[Dab][Dab]W[Dab][Dab]A[Dab][dP]P))")
0.40
>>> experimental_value("CC[C@H](C)[C@@H]1NC(=O)[C@H](Cc2c[nH]c3ccccc23)NC(=O)[C@H]([C@@H](C)O)NC(=O)[C@@H]2CCCN2C(=O)[C@H]2CCCN2C(=O)[C@H](CCN)NC(=O)[C@H](C)NC(=O)[C@H](CCN)NC(=O)[C@H](CCN)NC(=O)[C@H](Cc2c[nH]c3ccccc23)NC(=O)[C@H](CCN)NC(=O)[C@H](CCN)NC(=O)[C@H](CCCCN)NC(=O)[C@H](CCN)NC1=O [Example 1] (cyclo(TWI[Dab]K[Dab][Dab]W[Dab][Dab]A[Dab][dP]P))")
0.18
>>> experimental_value("CC[C@H](C)[C@@H]1NC(=O)[C@H](Cc2c[nH]c3ccccc23)NC(=O)[C@H]([C@@H](C)O)NC(=O)[C@@H]2CCCN2C(=O)[C@H]2CCCN2C(=O)[C@H](CCN)NC(=O)[C@H](CCO)NC(=O)[C@H](CCN)NC(=O)[C@H](CCN)NC(=O)[C@H](Cc2c[nH]c3ccccc23)NC(=O)[C@H](CCN)NC(=O)[C@H](CCN)NC(=O)[C@H](CCCCN)NC(=O)[C@H](CCN)NC1=O [Example 35] (cyclo(TWI[Dab]K[Dab][Dab]W[Dab][Dab][hSer][Dab][dP]P))")
0.31
